I'd be grateful if you could share measured Population Normal (%) for these entries.
- System: HEK-293T
- PROTOCOL_DETAILS: Multiplex assay against HEK293T
- Format: toxicity, cell-based
- CONDITION_CONTEXT: human, 24 h, 1 µM, compound concentration 1 uM, replicate 2
Answers are plain numbers, in %.

> print(dat)
                                smiles.repr          assay.readout  endpoint.result
1  Nc1nc2c(c(N3CCNCC3)n1)CCC1=C2[C@@H]2CCCC[C@@H]2O1  Population Normal (%)               96
2  Cl.Cl.Nc1ncnc2c1c(-c1cccc(OCc3ccccc3)c1)cn2[C@H]1C[C@@H](CN2CCC2)C1  Population Normal (%)               94
3  O=C(O)c1ccc2cc(-c3ccc(O)c(C45CC6CC(CC(C6)C4)C5)c3)ccc2c1  Population Normal (%)               98

Please examine the following record next.
Query: Reported Population Normal (%) for HEK-293T, given `CC(C)N1CCC(C)(C)c2cc(C#Cc3ccc(C(=O)O)cc3)ccc21` ?
Response: 95

---

- Tested on: Fibroblast
- PROTOCOL_DETAILS: Multiplex assay against human fibroblast
- Format: toxicity, cell-based
- CONDITION_CONTEXT: 12 h, 1 µM, compound concentration 1 uM, replicate 2
Can you tell me Population Membrane Permeable-Phenotype (%) for the items I'm about to list?
Give bare numbers, in %.

> print(dat)
                                   molecule  system.under.test  endpoint.result
1  CC(=O)c1cc(-c2cc(C(=O)NC3CC3)ccc2C)c2ncccn12         Fibroblast                2

I have 7 molecules here; please give me Population Membrane Permeable-Phenotype (%) for each one.
1. N#Cc1cnc(Nc2cc(NC[C@H]3CNCCO3)c(C(F)(F)F)cn2)cn1 [SRA-737]
2. CNc1oc(-c2cccc3ccccc23)nc1C#N
3. CCOc1cc2ncc(C#N)c(Nc3ccc(OCc4cccc(F)c4)c(Cl)c3)c2cc1NC(=O)/C=C/CN(C)C [HKI-357]
4. O=C(O)c1ccc2cc(-c3ccc(O)c(C45CC6CC(CC(C6)C4)C5)c3)ccc2c1 [O-DEMETHYLATED ADAPALENE]
5. COc1ccc(NS(=O)(=O)c2sc3ccc(Cl)cc3c2C)cc1N1CCNCC1.Cl
6. Cl.Cl.Nc1ncnc2c1c(-c1cccc(OCc3ccccc3)c1)cn2[C@H]1C[C@@H](CN2CCC2)C1
7. Cc1cn(-c2cc(NC(=O)c3ccc4c(c3)CN(c3cncnc3)C[C@@H]4C)cc(C(F)(F)F)c2)cn1

Response:
[10, 3, 4, 6, 0, 3, 0]

---

Provide the recorded Population Mitotic Cells (%) for the entries that follow.
- Test system: Fibroblast
- PROTOCOL_DETAILS: Multiplex assay against human fibroblast
- Format: toxicity, cell-based
- CONDITION_CONTEXT: 24 h, 10 µM, compound concentration 10 uM, replicate 2
Answer shape: numeric part, then the unit.

COMPOUND	ASSAY_READOUT	ENDPOINT_RESULT
Cc1nc(Cc2cccc(C(F)(F)F)c2)sc1-c1ccc(C(N)=O)nc1 [TP-024n]	Population Mitotic Cells (%)	55%

Could you report Population Mitotic Cells (%) for every entry in the following list?
1. c1ccc2oc(-c3csc(C4CCN(Cc5nc6ncccc6[nH]5)CC4)n3)cc2c1
2. CC(C)(C)c1cnc(CSc2cnc(NC(=O)C3CCNCC3)s2)o1 [BMS-387032]
3. CC(=O)c1cc(-c2cc(C(=O)NC3CC3)ccc2C)c2ncccn12
4. Nc1ccc(C(=O)Nc2cccc(-c3nc(N4CCOCC4)c4oc5ncccc5c4n3)c2)cn1
5. CCC(=O)O[C@]1(C(=O)SCF)[C@H](C)C[C@H]2[C@@H]3C[C@H](F)C4=CC(=O)C=C[C@]4(C)[C@@]3(F)[C@@H](O)C[C@@]21C [FLUTICASONE PROPIONATE]
6. N#Cc1cnc(Nc2cc(NC[C@H]3CNCCO3)c(C(F)(F)F)cn2)cn1 [SRA-737]

Response:
1: 0%; 2: 37%; 3: 51%; 4: 15%; 5: 41%; 6: 71%

Query: What Population Mitotic Cells (%) value was documented for this compound, `Cc1cc2c(cc1N1C(=O)c3cccc4c(CCCO)ccc(c34)C1=O)n(C)c(=O)n2C` ?
Response: 20%
